Cited source: ChEMBL document CHEMBL4680302

- Experiment Summary: Metabolic stability in human liver microsomes assessed as parent compound remaining after 10 mins
- Assay type: ADME, Microsome
- Applied Conditions: read-out: Stabilty
Category key, based on recorded remaining at 10 min: low: < 50%; middle: ≥ 50% and < 70%; high: ≥ 70%

query: Category lookup for the compound `C[C@@H](Nc1c(Cl)cnc2ccc(-c3ccc(C(C)(C)O)cc3)cc12)c1ccccc1F`
result: high

query: Category lookup for the compound `Cc1ccc(C)c(Nc2c(Cl)cnc3ccc(-c4ccc(C#N)nc4)cc23)c1`
result: low

query: Category lookup for the compound `C[C@H](Nc1c(Cl)cnc2ccc(-c3cnc(C(C)(C)O)nc3)cc12)c1ccccc1`
result: low

query: Category lookup for the compound CC(Nc1c(Cl)cnc2ccc(-c3cnc(C(C)(C)O)nc3)cc12)c1ccccc1C(F)(F)F (racemic)
result: high

query: Category lookup for the compound `C[C@@H](Nc1c(Cl)cnc2ccc(-c3cnc(N4CCS(=O)(=O)CC4)nc3)cc12)c1ccccc1F`
result: middle

query: Category lookup for the compound CCC(Nc1c(Cl)cnc2ccc(-c3cnc(C(C)(C)O)nc3)cc12)c1ccccc1F (racemic)
result: middle

query: Category lookup for the compound CC(Nc1c(Cl)cnc2ccc(-c3cnc(C(C)(C)O)nc3)cc12)c1cccc(F)c1 (racemic)
result: low

query: Category lookup for the compound `Cc1nc2cc(F)c(-c3cnc(C(C)(C)O)nc3)nc2c(N[C@H](C)c2cc(C#N)ccc2F)c1Cl`
result: high

query: Category lookup for the compound `CC(C)(O)c1ncc(-c2ccc3ncc(Cl)c(NCc4ccccc4)c3c2)cn1`
result: middle

query: Category lookup for the compound `C[C@@H](Nc1c(Cl)cnc2ccc(-c3cnc(C(C)(C)O)nc3)cc12)c1cc(N2CCCC2)ccc1F`
result: low

***
query: Category lookup for the compound `Cc1ccc(C)c(Nc2c(Cl)cnc3ccc(-c4cnc(C(C)(C)O)nc4)cc23)c1`
result: low

query: Category lookup for the compound `CCOc1ncc(-c2ccc3ncc(Cl)c(N[C@H](C)c4ccccc4F)c3c2)cn1`
result: low

query: Category lookup for the compound `C[C@@H](Nc1c(Cl)cnc2ccc(-c3cnc(C(C)(C)O)nc3)cc12)c1cc(C#N)ccc1F`
result: high

query: Category lookup for the compound CC(Nc1c(Cl)cnc2ccc(-c3cnc(C(C)(C)O)nc3)nc12)c1ccccc1F (single isomer, unassigned; enantiomer 2)
result: high

query: Category lookup for the compound CC(Nc1c(Cl)cnc2c(F)cc(-c3cnc(C(C)(C)O)nc3)cc12)c1ccccc1F (racemic)
result: middle

query: Category lookup for the compound `CC(C)(O)c1ncc(-c2ccc3ncc(Cl)c(NC(C)(C)c4ccccc4)c3c2)cn1`
result: high

query: Category lookup for the compound CC(Nc1c(Cl)cnc2c(Cl)cc(-c3cnc(C(C)(C)O)nc3)cc12)c1ccccc1F (racemic)
result: low

* * *

- Target: Voltage-gated inwardly rectifying potassium channel KCNH2 (Homo sapiens)
- Sequence (Q12809 whole entry): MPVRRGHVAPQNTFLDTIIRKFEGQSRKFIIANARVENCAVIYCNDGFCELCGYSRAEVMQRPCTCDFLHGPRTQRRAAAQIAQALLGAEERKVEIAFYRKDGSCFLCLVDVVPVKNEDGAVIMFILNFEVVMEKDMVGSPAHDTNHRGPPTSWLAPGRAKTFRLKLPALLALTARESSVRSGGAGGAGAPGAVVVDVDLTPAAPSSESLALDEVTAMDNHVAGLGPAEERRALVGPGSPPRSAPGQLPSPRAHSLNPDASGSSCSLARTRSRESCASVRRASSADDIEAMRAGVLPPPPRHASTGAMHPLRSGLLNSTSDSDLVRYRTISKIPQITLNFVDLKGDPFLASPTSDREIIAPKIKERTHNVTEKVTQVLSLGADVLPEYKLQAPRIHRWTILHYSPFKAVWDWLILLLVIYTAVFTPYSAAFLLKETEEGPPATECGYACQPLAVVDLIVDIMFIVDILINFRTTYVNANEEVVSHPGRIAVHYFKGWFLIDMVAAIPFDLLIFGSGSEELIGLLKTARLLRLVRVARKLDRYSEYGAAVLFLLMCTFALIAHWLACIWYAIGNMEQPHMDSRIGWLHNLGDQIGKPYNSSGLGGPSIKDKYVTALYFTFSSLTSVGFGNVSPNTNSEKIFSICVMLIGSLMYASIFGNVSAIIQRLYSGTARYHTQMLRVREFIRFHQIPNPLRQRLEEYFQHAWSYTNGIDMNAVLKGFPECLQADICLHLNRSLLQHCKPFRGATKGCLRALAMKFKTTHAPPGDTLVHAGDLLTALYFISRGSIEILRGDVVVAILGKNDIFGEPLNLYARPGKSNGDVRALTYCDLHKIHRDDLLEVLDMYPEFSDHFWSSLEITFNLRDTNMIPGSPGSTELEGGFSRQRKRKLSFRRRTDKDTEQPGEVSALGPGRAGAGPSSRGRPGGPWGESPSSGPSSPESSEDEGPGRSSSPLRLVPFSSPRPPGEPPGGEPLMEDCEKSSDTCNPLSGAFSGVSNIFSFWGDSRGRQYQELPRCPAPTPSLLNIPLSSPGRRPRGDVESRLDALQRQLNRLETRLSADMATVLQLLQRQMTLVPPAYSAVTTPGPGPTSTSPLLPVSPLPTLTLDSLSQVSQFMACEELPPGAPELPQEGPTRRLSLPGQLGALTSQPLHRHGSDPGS
- Experiment Summary: Inhibition of human ERG by patch clamp assay
Measured Parameter: pIC50
Note on units: pIC50 is unitless, being -log10 of a concentration expressed in mol/L.

query: Identify the measured pIC50 of `Cc1nc2cc(F)c(-c3cnc(C(C)(C)O)nc3)nc2c(N[C@H](C)c2cc(C#N)ccc2F)c1Cl` for Voltage-gated inwardly rectifying potassium channel KCNH2 (Homo sapiens).
result: 5.25

* * *

- Target: Tumor necrosis factor (Homo sapiens)
- Sequence (P01375 whole entry, the tested form may be a part): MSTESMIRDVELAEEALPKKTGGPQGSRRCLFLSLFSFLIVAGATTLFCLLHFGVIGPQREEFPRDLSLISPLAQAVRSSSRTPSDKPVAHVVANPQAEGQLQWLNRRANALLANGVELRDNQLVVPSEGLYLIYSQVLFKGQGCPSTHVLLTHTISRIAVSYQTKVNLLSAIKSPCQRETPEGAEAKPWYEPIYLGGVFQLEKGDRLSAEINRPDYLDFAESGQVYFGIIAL
- Experiment Summary: Inhibition of exogenous human TNFalpha in HEK-Blue-CD40L cells assessed as reduction in TNF-alpha-induced NFkappaB activation incubated for 18 hrs by quanti-blue based SEAP assay
- Assay type: cell-based
# pIC50 per record follows
Note on units: pIC50 is unitless, being -log10 of a concentration expressed in mol/L.

query: Suppose we examine the molecule `Cc1ccc(C)c(Nc2c(Cl)cnc3ccc(-c4ccc(C#N)nc4)cc23)c1` ; what pIC50 value has been reported?
result: 7.14

# input for lookup
query: Suppose we examine the molecule `C[C@@H](Nc1c(Cl)cnc2ccc(-c3cnc(C(C)(C)O)nc3)cc12)c1cc(C#N)ccc1F` ; what pIC50 value has been reported?
result: 7.31

* * *

- Experiment Summary: Drug exposure in TNFalpha-induced C57BL/6J mouse at 25 mg/kg, po pretreated with compound prior to 1 hr of TNFalpha challenge and measured at 3 hrs post dose
- Type: ADME, organism-based
- Applied Conditions: in vivo, read-out: Drug uptake
Measured Parameter: concentration at 3 h
For clarity, give the value followed by its unit.

query: Suppose we examine the compound `Cc1nc2cc(F)c(-c3cnc(C(C)(C)O)nc3)nc2c(N[C@H](C)c2cc(C#N)ccc2F)c1Cl` ; what concentration at 3 h value has been reported?
result: 1860 nM

* * *

- Experiment Summary: Oral bioavailability in mouse at 2 mg/kg
- Assay type: ADME, organism-based
- Applied Conditions: in vivo
Measured Parameter: bioavailability (%)
Provide only the numeric value, understood in %.

query: Suppose we examine the compound `Cc1nc2cc(F)c(-c3cnc(C(C)(C)O)nc3)nc2c(N[C@H](C)c2cc(C#N)ccc2F)c1Cl` ; what bioavailability value has been reported?
result: 58

* * *

- Target: Tumor necrosis factor (Homo sapiens)
- Experiment Summary: Displacement of fluorescent labeled probe from human recombinant His-tagged TNFalpha (77 to 233 residues) expressed in Escherichia coli preincubated for 1 hr followed by fluorogenic probe addition and measured after 3 hrs by HTRF assay
# pIC50 per record follows
Note on units: pIC50 is unitless, being -log10 of a concentration expressed in mol/L.

Example cases with answers are listed next.
query: Suppose we examine the molecule CC(Nc1c(Cl)cnc2ccc(-c3cnc(C(C)(C)O)nc3)cc12)c1ccccn1 (racemic) ; what pIC50 value has been reported?
result: 6.58

query: Suppose we examine the molecule `C[C@@H](Nc1c(Cl)cnc2ccc(-c3cnc(C(C)(C)O)nc3)cc12)c1cc(N)ccc1F` ; what pIC50 value has been reported?
result: 7.43

query: Suppose we examine the molecule `CC(C)(O)c1ncc(-c2ccc3ncc(Cl)c(NCc4ccccc4)c3c2)cn1` ; what pIC50 value has been reported?
result: 7.09

query: Suppose we examine the molecule CC(Nc1c(Cl)cnc2ccc(-c3cnc(C(C)(C)O)nc3)cc12)c1cccc(F)c1 (racemic) ; what pIC50 value has been reported?
result: 7.51

query: Suppose we examine the molecule `Cc1nc2cc(F)c(-c3cnc(C(C)(C)O)nc3)nc2c(N[C@H](C)c2cc(C#N)ccc2F)c1Cl` ; what pIC50 value has been reported?
result: 7.60

***
query: Suppose we examine the molecule CC(Nc1c(Cl)cnc2ccc(-c3cnc(C(C)(C)O)nc3)nc12)c1ccccc1F (single isomer, unassigned; enantiomer 2) ; what pIC50 value has been reported?
result: 7.42

query: Suppose we examine the molecule CC(Nc1c(Cl)cnc2cnc(-c3cnc(C(C)(C)O)nc3)cc12)c1ccccc1F (racemic) ; what pIC50 value has been reported?
result: 6.40

query: Suppose we examine the molecule CC(Nc1c(Cl)cnc2ccc(-c3cnc(C(C)(C)O)nc3)cc12)c1ccc(F)cc1 (racemic) ; what pIC50 value has been reported?
result: 7.21

query: Suppose we examine the molecule CC(Nc1c(Cl)cnc2c(F)cc(-c3cnc(C(C)(C)O)nc3)cc12)c1ccccc1F (racemic) ; what pIC50 value has been reported?
result: 7.34

query: Suppose we examine the molecule `C[C@@H](Nc1c(Cl)cnc2ccc(-c3cnc(C(C)(C)O)nc3)cc12)c1cc(N2CCCC2)ccc1F` ; what pIC50 value has been reported?
result: 7.03

query: Suppose we examine the molecule `Cc1ccc(C)c(Nc2c(Cl)c(C)nc3ccc(-c4cnc(C(C)(C)O)nc4)cc23)c1` ; what pIC50 value has been reported?
result: 7.29

query: Suppose we examine the molecule CC(Nc1c(Cl)cnc2cc(F)c(-c3cnc(C(C)(C)O)nc3)cc12)c1ccccc1F (racemic) ; what pIC50 value has been reported?
result: 7.32

* * *

- Target: Cytochrome P450 2C9 (Homo sapiens)
- Sequence (P11712 whole entry): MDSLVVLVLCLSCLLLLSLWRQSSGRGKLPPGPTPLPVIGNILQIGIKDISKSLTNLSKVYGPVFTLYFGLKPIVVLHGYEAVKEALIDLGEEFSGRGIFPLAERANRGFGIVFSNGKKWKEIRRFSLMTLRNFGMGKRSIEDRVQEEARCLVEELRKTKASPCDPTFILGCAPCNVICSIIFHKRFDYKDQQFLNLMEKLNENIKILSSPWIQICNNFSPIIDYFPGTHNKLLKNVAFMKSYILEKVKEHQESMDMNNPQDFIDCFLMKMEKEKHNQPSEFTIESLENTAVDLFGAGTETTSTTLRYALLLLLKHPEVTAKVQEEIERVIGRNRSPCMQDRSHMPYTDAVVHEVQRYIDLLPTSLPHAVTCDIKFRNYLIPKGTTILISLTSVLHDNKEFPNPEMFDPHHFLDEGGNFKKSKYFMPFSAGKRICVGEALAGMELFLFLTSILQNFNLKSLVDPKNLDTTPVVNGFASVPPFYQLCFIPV
- Experiment Summary: Inhibition of recombinant CYP2C9 (unknown origin)
# pIC50 per record follows
Note on units: pIC50 is unitless, being -log10 of a concentration expressed in mol/L.

Example cases with answers are listed next.
query: Identify the measured pIC50 of `Cc1ccc(C)c(Nc2c(Cl)c(C)nc3ccc(-c4cnc(C(C)(C)O)nc4)cc23)c1` for Cytochrome P450 2C9 (Homo sapiens).
result: 5.55

query: Identify the measured pIC50 of `Cc1nc2cc(F)c(-c3cnc(C(C)(C)O)nc3)nc2c(N[C@H](C)c2cc(C#N)ccc2F)c1Cl` for Cytochrome P450 2C9 (Homo sapiens).
result: 5.70

# input for lookup
query: Identify the measured pIC50 of `Cc1ccc(C)c(Nc2c(Cl)cnc3ccc(-c4cnc(C(C)(C)O)nc4)cc23)c1` for Cytochrome P450 2C9 (Homo sapiens).
result: 6.22

* * *

- Experiment Summary: Solubility of compound
- Format: physicochemical
Measured Parameter: solubility
For clarity, give the value followed by its unit.

query: Suppose we examine the compound `Cc1nc2cc(F)c(-c3cnc(C(C)(C)O)nc3)nc2c(N[C@H](C)c2cc(C#N)ccc2F)c1Cl` ; what solubility value has been reported?
result: 1 µg/mL
